Tested on: MDR1-MDCK cell monolayers
Conditions: dog, MDCK-MDR1, 120 min, 5 μM, pH 7.4
Recorded MDCK-MDR1: % Recov B-A by entry
Field: numeric (%). Do not append units.

Worked examples follow.
{"compound": "Cc1nc2cc(O)c(-c3ccc(N(C)[C@@H]4C[C@H]5CC[C@H](N5)C4F)nn3)cc2o1 (stereo in doubt) [Compound 40A]", "readout-type": "MDCK-MDR1: % Recov B-A", "recorded-value": 92}
{"compound": "CN(c1ccc(-c2cnc(C#N)cc2O)nn1)[C@H]1C[C@@H]2CC[C@@H](N2)[C@H]1F (single isomer, unassigned) [Compound 71B]", "readout-type": "MDCK-MDR1: % Recov B-A", "recorded-value": 89}
{"compound": "CN(C)C(=O)c1cc2cc(O)c(-c3ccc(N(C4CC4)[C@@H]4C[C@H]5CC[C@H](N5)[C@@H]4F)nn3)cc2o1 [Compound 86A]", "readout-type": "MDCK-MDR1: % Recov B-A", "recorded-value": 90}
{"compound": "Cn1cnc2cc(-c3ccc(N(C4CC4)[C@@H]4C[C@H]5CC[C@H](N5)[C@@H]4F)nn3)c(O)cc2c1=O [Compound 56A]", "readout-type": "MDCK-MDR1: % Recov B-A", "recorded-value": 83}
{"compound": "CN(c1ccc(-c2cn3c(=O)ccnc3cc2O)nn1)[C@@H]1C[C@H]2CC[C@H](N2)[C@@H]1F (single isomer, unassigned) [Compound 82A]", "readout-type": "MDCK-MDR1: % Recov B-A", "recorded-value": 121}

For this compound ( CN1[C@H]2CC[C@@H]1[C@@H](F)[C@@H](N(c1ccc(-c3cc4oc(C(=O)N5CCC5)cc4cc3O)nn1)C1CC1)C2 (single isomer, unassigned) [Compound 92B] ), measured MDCK-MDR1: % Recov B-A is 105

For this compound ( CN(c1ccc(-c2cc3ccn(C)c(=O)c3cc2O)nn1)[C@@H]1C[C@H]2CC[C@@H]([C@@H]1F)N2C (single isomer, unassigned) [Compound 97A] ), measured MDCK-MDR1: % Recov B-A is 74

For this compound ( CN(c1ccc(-c2cc3ccn(C)c(=O)c3cc2O)nn1)[C@H]1C[C@@H]2CC[C@H]([C@H]1F)N2C (single isomer, unassigned) [Compound 97B] ), measured MDCK-MDR1: % Recov B-A is 83

For this compound ( CN(c1ccc(-c2cc3ncn(CC(F)(F)F)c(=O)c3cc2O)nn1)[C@H]1C[C@@H]2CCC[C@H]([C@H]1F)N2C (single isomer, unassigned) [Compound 109B] ), measured MDCK-MDR1: % Recov B-A is 87
